These entries and their values trace back to ChEMBL document CHEMBL4689842.

# System: Fibroblast
# procedure-details: Multiplex assay against human fibroblast
# Assay type: toxicity, cell-based
# experimental-parameters: 48 h, 1 µM, compound concentration 1 uM, replicate 1
Measured Total Cell Count of individual entries
Number only, no unit.

Ask: Provide the reported Total Cell Count (system: Fibroblast) for "Cc1ccc(C(=O)Nc2cccc(C(F)(F)F)c2)cc1Nc1nc(-c2cccnc2)nc2c1cnn2C"
Result: 189

Ask: Provide the reported Total Cell Count (system: Fibroblast) for CN1C2CCC1CC(OC(c1ccc(F)cc1)c1ccc(F)cc1)C2.Cl (stereo not given)
Result: 126

Ask: Provide the reported Total Cell Count (system: Fibroblast) for CN(C)C(=O)C(CCN1CCC(O)(c2ccc(Cl)cc2)CC1)(c1ccccc1)c1ccccc1.Cl [LOPERAMIDE HYDROCHLORIDE]
Result: 155

Ask: Provide the reported Total Cell Count (system: Fibroblast) for "COc1cc(N2CCN(C)CC2)ccc1Nc1ncc2c(n1)N(C)c1ccccc1C(=O)N2C"
Result: 176

Ask: Provide the reported Total Cell Count (system: Fibroblast) for O=C(Cc1ccc(-c2ccc(OCCN3CCOCC3)cc2)cn1)NCc1ccccc1 [TIRBANIBULIN]
Result: 94

---
Ask: Provide the reported Total Cell Count (system: Fibroblast) for O=C(Nc1ccc(-n2nc(-c3cccnc3)cc2C(F)(F)F)cn1)c1ccc(-c2ccccc2)c(F)c1 [BI 2049]
Result: 97

Ask: Provide the reported Total Cell Count (system: Fibroblast) for CCCn1c(=O)c2[nH]c(-c3cnn(Cc4cccc(C(F)(F)F)c4)c3)nc2n(CC)c1=O [GS 6201]
Result: 84

Ask: Provide the reported Total Cell Count (system: Fibroblast) for "O=C1N/C(=N/c2ccccc2F)S/C1=C\c1ccc(C(=O)O)cc1"
Result: 118

Ask: Provide the reported Total Cell Count (system: Fibroblast) for "CCOc1cc(C(=O)N2CCC(N3CCN(C)CC3)CC2)ccc1Nc1ncc2c(n1)N(C1CCCC1)c1ccccc1C(=O)N2C"
Result: 213

Ask: Provide the reported Total Cell Count (system: Fibroblast) for "CNc1cc(Oc2cc(C(=O)Nc3cc(N4CCN(C)CC4)cc(C(F)(F)F)c3)ccc2C)ncn1"
Result: 150

###

# Tested on: U2OS
# procedure-details: Multiplex assay against U2OS
# Format: toxicity, cell-based
# experimental-parameters: human, 24 h, 10 µM, compound concentration 10 uM, replicate 1
observed-property: Population Mitotic Cells (%)
Note: unit % is implicit; provide only the numeric part.

These solved cases illustrate the format of a correct answer.
Ask: Write down Population Mitotic Cells (%) measured for item "COc1ccc(S(=O)(=O)N(CCO)c2ccccc2CN(C)C/C=C/c2ccc(Cl)cc2)cc1.O=P(O)(O)O"
Result: 37

Ask: Write down Population Mitotic Cells (%) measured for item "COCC(=O)NC/C=C/c1ccc2ncnc(Nc3ccc(Oc4ccc(C)nc4)c(C)c3)c2c1"
Result: 39

Ask: Write down Population Mitotic Cells (%) measured for item CCOC(=O)c1c(C)[nH]c2ccc3c(c12)CN1CCc2cc(OC)ccc2C1O3 (centres undefined)
Result: 9

// next entry
Ask: Write down Population Mitotic Cells (%) measured for item "C=CCn1c(=O)c2cnc(Nc3ccc(N4CCN(C)CC4)cc3)nc2n1-c1cccc(C(C)(C)O)n1"
Result: 35

###

# System: U2OS
# procedure-details: Multiplex assay against U2OS
# Assay type: toxicity, cell-based
# experimental-parameters: human, 24 h, 10 µM, compound concentration 10 uM, replicate 2
observed-property: Population Membrane Permeable-Phenotype (%)
Quote the value and follow it with the unit of measurement.

These solved cases illustrate the format of a correct answer.
Ask: Write down Population Membrane Permeable-Phenotype (%) measured for item "COCC(=O)NC/C=C/c1ccc2ncnc(Nc3ccc(Oc4ccc(C)nc4)c(C)c3)c2c1"
Result: 51%

Ask: Write down Population Membrane Permeable-Phenotype (%) measured for item "COC(=N)c1nc2ccc3ncnc(Nc4ccc(OC)cc4F)c3c2s1"
Result: 10%

Ask: Write down Population Membrane Permeable-Phenotype (%) measured for item "COc1cc(N2CCN(C)CC2)ccc1Nc1ncc2c(n1)N(C)c1ccccc1C(=O)N2C"
Result: 30%

Ask: Write down Population Membrane Permeable-Phenotype (%) measured for item CN(C)C(=O)C(CCN1CCC(O)(c2ccc(Cl)cc2)CC1)(c1ccccc1)c1ccccc1.Cl [LOPERAMIDE HYDROCHLORIDE]
Result: 86%

Ask: Write down Population Membrane Permeable-Phenotype (%) measured for item COc1cc2ncnc(Nc3ccc(F)c(Cl)c3)c2cc1NC(=O)/C=C/CN1CCCCC1 [DACOMITINIB ANHYDROUS]
Result: 18%

// next entry
Ask: Write down Population Membrane Permeable-Phenotype (%) measured for item "O=C(Nc1ccc(Cl)cc1)Nc1cccc(-c2cccc(N3CCCC3)n2)c1"
Result: 46%

###

# System: Fibroblast
# procedure-details: Multiplex assay against human fibroblast
# Assay type: toxicity, cell-based
# experimental-parameters: 24 h, 1 µM, compound concentration 1 uM, replicate 1
observed-property: Population Hoechst High Intensity Objects (%)
Note: unit % is implicit; provide only the numeric part.

These solved cases illustrate the format of a correct answer.
Ask: Provide the reported Population Hoechst High Intensity Objects (%) (system: Fibroblast) for O=C(Nc1ccc(-n2nc(-c3cccnc3)cc2C(F)(F)F)cn1)c1ccc(-c2ccccc2)c(F)c1 [BI 2049]
Result: 14

Ask: Provide the reported Population Hoechst High Intensity Objects (%) (system: Fibroblast) for "CCc1cccc(CC)c1NC(=O)c1nn(C)c2c1CCc1cnc(Nc3ccc(C(=O)NC4CCN(C)CC4)cc3OC(F)(F)F)nc1-2"
Result: 11

// next entry
Ask: Provide the reported Population Hoechst High Intensity Objects (%) (system: Fibroblast) for "CCOc1cc(C(=O)N2CCC(N3CCN(C)CC3)CC2)ccc1Nc1ncc2c(n1)N(C1CCCC1)c1ccccc1C(=O)N2C"
Result: 11

###

# Test system: HEK-293T
# procedure-details: Multiplex assay against HEK293T;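 note: share of the cells with healthy nuclei that show this phenotype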
# Type: toxicity, cell-based
# experimental-parameters: human, 24 h, 1 µM, compound concentration 1 uM, replicate 2
Measured Population Tubulin-Different-Phenotype (%) of individual entries
Note: unit % is implicit; provide only the numeric part.

These solved cases illustrate the format of a correct answer.
Ask: Write down Population Tubulin-Different-Phenotype (%) measured for item "COc1ccc(-c2ccc3c(N4CCOCC4)nc(N4C[C@@H](C)O[C@@H](C)C4)nc3n2)cc1CO"
Result: 6

Ask: Write down Population Tubulin-Different-Phenotype (%) measured for item "C=C1/C(=C\C=C2/CCC[C@]3(C)[C@@H]([C@H](C)/C=C/[C@H](C)C(C)C)CC[C@@H]23)C[C@@H](O)C[C@@H]1O"
Result: 12

Ask: Write down Population Tubulin-Different-Phenotype (%) measured for item "CCCn1c(=O)c2[nH]c(-c3cnn(Cc4cccc(C(F)(F)F)c4)c3)nc2n(CC)c1=O"
Result: 28

Ask: Write down Population Tubulin-Different-Phenotype (%) measured for item "O=C1NC(=O)C(c2cnc3ccccn23)=C1c1cn2c3c(cc(F)cc13)CN(C(=O)N1CCCCC1)CC2"
Result: 66

// next entry
Ask: Write down Population Tubulin-Different-Phenotype (%) measured for item "CNc1cc(Oc2cc(C(=O)Nc3cc(N4CCN(C)CC4)cc(C(F)(F)F)c3)ccc2C)ncn1"
Result: 70

###

# Tested on: Fibroblast
# procedure-details: Multiplex assay against human fibroblast
# Format: toxicity, cell-based
# experimental-parameters: 24 h, 10 µM, compound concentration 10 uM, replicate 1
observed-property: Population Apoptotic (%)
Note: unit % is implicit; provide only the numeric part.

Ask: Provide the reported Population Apoptotic (%) (system: Fibroblast) for "Cl.O=c1c2cccn2c2ccccc2n1CCCN1CCC(c2ccc(Cl)cc2)CC1"
Result: 67

Ask: Provide the reported Population Apoptotic (%) (system: Fibroblast) for "CCc1cccc(CC)c1NC(=O)c1nn(C)c2c1CCc1cnc(Nc3ccc(C(=O)NC4CCN(C)CC4)cc3OC(F)(F)F)nc1-2"
Result: 62

Ask: Provide the reported Population Apoptotic (%) (system: Fibroblast) for "O=C1NC(=O)C(c2cnc3ccccn23)=C1c1cn2c3c(cc(F)cc13)CN(C(=O)N1CCCCC1)CC2"
Result: 70

Ask: Provide the reported Population Apoptotic (%) (system: Fibroblast) for "COc1cccc2cc(-c3nc([C@H]4CC[C@H](C(=O)O)CC4)n4ncnc(N)c34)[nH]c12"
Result: 75

Ask: Provide the reported Population Apoptotic (%) (system: Fibroblast) for "O=C(Nc1ccc(-c2ccnc(Nc3ccc(N4CCOCC4)cc3)n2)cc1)[C@@H]1CCCN1"
Result: 57

Ask: Provide the reported Population Apoptotic (%) (system: Fibroblast) for "Cc1ccc(C(=O)Nc2cccc(C(F)(F)F)c2)cc1Nc1nc(-c2cccnc2)nc2c1cnn2C"
Result: 85

Ask: Provide the reported Population Apoptotic (%) (system: Fibroblast) for "Cc1cc(C)c(S(=O)(=O)N(Cc2ccc(-c3cccc(S(C)(=O)=O)c3)cc2)Cc2ccc(C(F)(F)F)o2)c(C)c1"
Result: 77

Ask: Provide the reported Population Apoptotic (%) (system: Fibroblast) for "COCC(=O)NC/C=C/c1ccc2ncnc(Nc3ccc(Oc4ccc(C)nc4)c(C)c3)c2c1"
Result: 57

// next entry
Ask: Provide the reported Population Apoptotic (%) (system: Fibroblast) for CN1C2CCC1CC(OC(c1ccc(F)cc1)c1ccc(F)cc1)C2.Cl (centres undefined)
Result: 38
